assay.readout: melting point

- compound: "Clc1ccc(Nc2nnc(Cc3ccncc3)c3c2CCCC3)cc1"
  melting point: "258 to 261 °C"
- compound: "O=C1c2cccc(F)c2-n2c1nc1ccccc1c2=O"
  melting point: "264 to 267 °C"
- compound: "O=C(c1sc2c([N+](=O)[O-])c(O)c(O)cc2c1Cl)N1CCCCC1"
  melting point: "254 to 256 °C"

GET /value?item= CC1(C)Oc2ccc(C#N)cc2C(C2=C(C(O)C(N)=O)C=CCC2)=C1O (stereo not given) &field=melting point returns 235 to 237 °C

The reported value for "CC(C)c1ccc(NC(=O)OC(C)(C)C)c(NC(=O)CC(=O)c2cccc(C#N)c2)c1" in terms of melting point is 179 to 180 °C

====

Let's look at some compounds and their measured melting point.

Use these answered entries as a reference point.
- compound.structure: "CCOC(=O)c1nc(O)n2c1c(=O)n(C)c1cc(C(F)(F)F)ccc12"
  melting point: "> 300 °C"
- compound.structure: "COc1ccc(C#N)c(Cl)c1OC(C)=O"
  melting point: "97 to 99 °C"

Alright, here's another compound for you.
The compound listed as "COC(=O)c1ccc2cccc(OS(=O)(=O)C(F)(F)F)c2n1" shows melting point equal to 77 to 78 °C

====

assay.readout: melting point (°C)
# unit: °C | format: bare number

- molecule: "O=C(NCC(=O)N1c2ccccc2N(Cc2ccccc2)C(=O)[C@H]2CCC[C@H]21)c1cccs1 (relative stereo)"
  melting point [°C]: 223

Documented melting point of "CCCS(=O)(=O)n1ccc2ccc(N=C3NCCN3)cc21" : 213

====

assay.readout: melting point

Solved cases (3 shown):
- compound: "CN1Cc2c([N+](=O)[O-])ncn2-c2ccccc2C1=O"
  assay.readout: "melting point"
  result: "227 to 229 °C"
- compound: "CCOC(=O)c1cc(=O)c2c(OCC(O)COc3ccc(Cl)cc3Cl)cccc2o1 (centres undefined)"
  assay.readout: "melting point"
  result: "98 to 100 °C"
- compound: "CNC(=O)c1cc2c(nc(C)n2C)c2c1C(=O)CC1(Cc3ccccc3C1)N2"
  assay.readout: "melting point"
  result: "261 °C"

Now for another entry.
Notebook: "CCCc1nn(-c2ccc(C(F)(F)F)cn2)cc1CCCOc1c(CC)cnn1CC(=O)O" , melting point read as 135 to 136 °C

====

Attribute: melting point

Reference set, count: 2
- molecule: "CN1N=CC(=CNCc2ccc(F)cc2F)C1=O"
  melting point: "181 to 182 °C"
- molecule: "CC(C)(C)OC(=O)NCCCc1ccccc1OCc1ccccc1"
  melting point: "50 to 52 °C"

Value of measured melting point for the entry COc1nc2ccc(Br)cc2cc1C(Br)c1ccccc1 (configuration not stated) : 85 to 86 °C

Value of melting point reported for the molecule "Cc1cc(S(N)(=O)=O)ccc1NC(=O)CNc1ccccc1" is 195 to 196 °C

# melting point (molecule: "NC(=O)Nc1ccc(C(O)(C(F)(F)F)C(F)(F)F)cc1" ) is 176 to 179 °C

# melting point (molecule: "COc1cc(C(C)=O)ccc1OC/C=C/CN1CCC(c2noc3cc(F)ccc23)CC1" ) is 57 to 59 °C

// "COc1cc(OC)c2c(-c3ccc4c(c3)OCO4)c3c(cc2c1)C(=O)NC3" : melting point value = 252 to 254 °C

Source listed as a melting point compilation (Tetko et al.; mined from patent text by program, amines drawn as free bases though some values may be those of a salt).
